Just for reference, ChEMBL document CHEMBL4043125 is where these values come from.

Target: Cholinesterase (Homo sapiens)
Test: Inhibition of BuChE (unknown origin) at 10 uM using S-butyrylthiocholin iodide as substrate preincubated for 10 mins followed by substrate addition measured after 15 mins by spectrophotometric analysis relative to control
Measured inhibition, listed per entry.
Answer format: numeric, % implied, no suffix.

These recorded examples may help you get a feel for the data.
[
  {
    "molecule": "O=C(Cc1ccccc1B(O)O)N1CCC(Oc2ccc(C(F)(F)F)nc2)CC1",
    "measure name": "inhibition",
    "reported value": 62
  },
  {
    "molecule": "O=C(Cc1ccccc1B(O)O)N1CCC(Oc2ccc(C(F)(F)F)cc2)CC1",
    "measure name": "inhibition",
    "reported value": 72
  },
  {
    "molecule": "O=C(Cc1ccccc1B(O)O)N1CCC(Oc2ccc(C(F)(F)F)cn2)CC1",
    "measure name": "inhibition",
    "reported value": 46
  }
]

Fill in the recorded inhibition for this molecule, with Cholinesterase (Homo sapiens) as test system: `COc1ccc(CC(=O)N2CCC(Oc3ccc(C(F)(F)F)cn3)CC2)c(B(O)O)c1` -4

Here is the next molecule: O=C(C(O)c1ccccc1B(O)O)N1CCC(Oc2ccc(C(F)(F)F)cn2)CC1 (configuration not stated) 4

Here is the next molecule: `O=C(Cc1ccc(Cl)cc1B(O)O)N1CCC(Oc2ccc(C(F)(F)F)cn2)CC1` 5

Here is the next molecule: `O=C(Cc1ccc(F)cc1B(O)O)N1CCC(Oc2ccc(C(F)(F)F)cn2)CC1` 2

* * *

Assay: AUC (0 to 7 hrs) in rat at 3 mg/kg, po by LC-MS/MS analysis
Type: ADME, organism-based
Set-up: time < 7 hr, dose 3 mg/kg, route oral
Details: in vivo
measure name: AUC(0-t) at 7 h (ng·h/mL)
Answer format: numeric, ng·h/mL implied, no suffix.

What AUC(0-t) at 7 h value was documented for this compound, `O=C(Cc1ccc(F)cc1B(O)O)N1CCC(Oc2ccc(C(F)(F)F)cn2)CC1` ? 3180

* * *

Target: Hormone-sensitive lipase (Homo sapiens, UniProt Q05469)
Sequence (Q05469 whole entry): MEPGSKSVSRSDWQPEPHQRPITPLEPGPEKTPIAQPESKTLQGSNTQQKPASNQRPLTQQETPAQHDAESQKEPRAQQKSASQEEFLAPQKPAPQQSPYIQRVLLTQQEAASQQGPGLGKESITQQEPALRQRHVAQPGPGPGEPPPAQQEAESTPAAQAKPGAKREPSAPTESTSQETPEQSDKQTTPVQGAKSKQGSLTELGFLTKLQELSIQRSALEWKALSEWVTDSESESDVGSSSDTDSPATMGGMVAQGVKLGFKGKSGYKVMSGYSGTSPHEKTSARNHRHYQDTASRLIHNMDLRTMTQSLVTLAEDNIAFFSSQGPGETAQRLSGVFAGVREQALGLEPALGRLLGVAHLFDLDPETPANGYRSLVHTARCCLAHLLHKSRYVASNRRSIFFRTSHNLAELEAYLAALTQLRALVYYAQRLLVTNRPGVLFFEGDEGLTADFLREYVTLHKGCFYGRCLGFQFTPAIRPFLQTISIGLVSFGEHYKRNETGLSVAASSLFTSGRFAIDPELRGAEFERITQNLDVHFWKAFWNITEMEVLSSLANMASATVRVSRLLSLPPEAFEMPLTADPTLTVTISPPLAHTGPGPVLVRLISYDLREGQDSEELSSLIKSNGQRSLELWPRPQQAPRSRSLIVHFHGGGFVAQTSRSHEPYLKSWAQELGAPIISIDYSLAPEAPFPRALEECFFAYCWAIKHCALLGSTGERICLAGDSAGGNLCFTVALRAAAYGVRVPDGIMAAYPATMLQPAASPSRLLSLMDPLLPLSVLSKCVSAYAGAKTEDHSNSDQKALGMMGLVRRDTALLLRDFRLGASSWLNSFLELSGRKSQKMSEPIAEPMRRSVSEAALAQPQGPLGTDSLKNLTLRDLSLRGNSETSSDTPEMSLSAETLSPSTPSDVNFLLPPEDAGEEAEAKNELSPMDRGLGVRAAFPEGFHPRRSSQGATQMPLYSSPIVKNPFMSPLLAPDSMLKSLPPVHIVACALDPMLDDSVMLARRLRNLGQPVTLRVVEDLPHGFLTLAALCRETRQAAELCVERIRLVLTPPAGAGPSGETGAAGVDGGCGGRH
Assay: Inhibition of recombinant human HSL expressed in baculovirus infected sf9 insect cells using PNPB as substrate after 5 mins by spectrophotometric analysis
measure name: IC50

What IC50 value was documented for this compound, `CN(C)C(=O)c1ccc(OC2CCN(C(=O)Cc3ccccc3B(O)O)CC2)nc1` ? > 5 µM

* * *

Assay: Aqueous solubility of the compound in FaSSIF after 4 hrs by HPLC/UV analysis
Format: physicochemical
Measured solubility at 4 h, listed per entry.
Answer format: numeric, µg/mL implied, no suffix.

[
  {
    "smiles": "O=C(Nc1ccc(Cl)cc1B(O)O)c1ccc(Oc2ccc(C(F)(F)F)cc2)nc1",
    "measure name": "solubility at 4 h",
    "unit annotation": "µg/mL",
    "reported value": 12
  }
]

What solubility at 4 h value was documented for this molecule, `O=C(Cc1ccc(F)cc1B(O)O)N1CCC(Oc2ccc(C(F)(F)F)cn2)CC1` ? 99

* * *

Test: Aqueous solubility of the compound in Japanese pharmacopoeia first fluid at pH 1.2 after 4 hrs by HPLC/UV analysis
Format: physicochemical
Measured solubility at 4 h, listed per entry.
Answer format: numeric, µg/mL implied, no suffix.

[
  {
    "smiles": "O=C(Cc1ccc(F)cc1B(O)O)N1CCC(Oc2ccc(C(F)(F)F)cn2)CC1",
    "unit annotation": "µg/mL",
    "reported value": 190
  }
]

Next item in the queue.
What solubility at 4 h value was documented for this compound, `O=C(Nc1ccc(Cl)cc1B(O)O)c1ccc(Oc2ccc(C(F)(F)F)cc2)nc1` ? 1.8
